Entries and their growth inhibition
Protocol description: NCI Yeast Anticancer Drug Screen. Data for the rad50 strain (AID 155);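 further: 0% = growth of vehicle-only cultures of the same strain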
Assay setup: S. cerevisiae rad50 strain growth inhibition; at 50.0 µM; active compounds read high
About 79,000 compounds went through this panel and 15% of them were active in at least one assay; those are over-represented in the sample as a whole.
Your answer is read as %, so omit the unit and give the number.

Below, each entry is followed by its recorded growth inhibition result.
CCOP(=O)(OCC)/C(C#N)=C/c1ccccc1OC : 40.5
CC(C)=N.[C-]#[O+].[C-]#[O+].[C-]#[O+].[C-]#[O+].[C-]#[O+].[W] : -7.35
O=C1NC(=O)C2(O)NC(=O)NC2(O)N1 (stereo not drawn) : -27.1
[N-]=[N+]=Nc1c([N+](=O)[O-])c(=O)n2c3c(cccc13)CCC2 : 85.5
C[CH2][Sn](/[CH]=C/C=C/OC)([CH2]C)[CH2]C : 36.5

Form field: reported growth inhibition of COc1ccc(CCN(C)Cc2cccc(OC)c2OC)cc1OC
-17.1

###

Protocol description: NCI Yeast Anticancer Drug Screen. Data for the bub3 strain (AID 167)
Assay setup: S. cerevisiae bub3 mutant strain, at 50.0 µM (retest, dose inferred, filed as 5.0)
Protocol: Growth inhibition of yeast strains with defined genetic alterations is measured as a screen for potential anti-cancer activity. Selected strains with alterations in DNA damage repair or cell cycle control were exposed to compounds and growth inhibition was measured relative to vehicle treated controls. The strain used in this assay is bub3
The panel holds about 79,000 compounds, 15% with a hit somewhere; the sample as a whole holds those more often. Activity calls are given as the source filed them. No stated cut-off is given here; in the data, active means growth inhibition above about 70%; inactive means the rest.
Allowed answers: active, inactive

Worked examples, 5 compounds total:
COc1cc([N+](=O)[O-])c2ncccc2c1[N+](=O)[O-] : inactive
CCOP(=O)(N=Nc1cccnc1)OCC : inactive
COc1ccccc1[As]=[As]c1ccccc1OC (centres undefined) : active
COc1cc(C2c3[nH]c4ccccc4c3[C@@H](Nc3ccc(C#N)cc3)[C@H]3COC(=O)N23)cc(OC)c1O (some centres undefined) : active
CCOC(=O)c1ccc(NP(=O)(Oc2ccccc2)Oc2ccccc2)cc1 : active

Give the logged outcome of this assay for the following compound: CCOC(=O)c1[nH]cnc1/N=N/N(C)N
active

Give the logged outcome of this assay for the following compound: C/C(=N\NC(N)=O)C(CN1CCCCC1)C(c1ccccc1)c1c(O)c2ccccc2oc1=O (centres undefined)
inactive

Give the logged outcome of this assay for the following compound: C[CH2][Sn]([CH2]C)[O][Sn]([Cl])([CH2]C)[CH2]C
active

Give the logged outcome of this assay for the following compound: CC(=O)c1cc(CN(CCCl)CCCl)c(O)c(CN(CCCl)CCCl)c1O
inactive

Give the logged outcome of this assay for the following compound: CN1C(=O)C2(C)SSC1(C)C(=O)N2C
active

###

Protocol description: NCI Yeast Anticancer Drug Screen. Data for the mlh1 rad18 strain (AID 175)
Assay setup: S. cerevisiae mlh1 rad18 strain growth inhibition; at 50.0 µM
Compounds without any hit were thinned out: in the full panel of roughly 79,000, 15% have a hit. Calls of active or inactive are those of the source. Rule as the data show it: active = growth inhibition above about 70%; inactive = the rest.
Allowed answers: true (active), false (inactive)

Give the logged outcome of this assay for the following molecule: COc1cc2c(cc1OC)[N+]1(C)CCC3OCCC4C[N+]5(C)CCC26C5CC4C3C61 (centres undefined)
false

Give the logged outcome of this assay for the following molecule: CCOC(=O)/C(=C/c1ccc[nH]1)P(=O)(OCC)OCC
false

Give the logged outcome of this assay for the following molecule: CN(C)C(=O)C1(c2ccccc2)CCNCC1
false

Give the logged outcome of this assay for the following molecule: C#CCOC(=O)C=[N+]=[N-]
false

###

Protocol description: NCI Yeast Anticancer Drug Screen. Data for the sgs1 mgt1 strain (AID 161);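 further: 0% = growth of cultures given vehicle only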
Assay setup: S. cerevisiae sgs1 mgt1 strain, at 50.0 µM
The panel holds about 79,000 compounds, 15% with a hit somewhere; the sample as a whole holds those more often. Calls of active or inactive are those of the source. Cut-off read from the data, not from the text of the source: active = growth inhibition above about 70%; inactive = the rest.
Allowed answers: active, inactive

Worked examples, 3 molecules total:
O=C(CC(=O)C(F)(F)C(F)(F)C(F)(F)F)c1ccco1.[Fe] : inactive
Nc1ccccc1Nc1ccccc1C(=O)[O-].Nc1ccccc1Nc1ccccc1C(=O)[O-].[Zn+2] : inactive
CCC(Br)C(=O)O (centres undefined) : inactive

Now let's try a different one.
Give the logged outcome of this assay for the following molecule: COc1ccc2c(ccc3oc([N+](=O)[O-])cc32)c1
active

###

Protocol description: NCI Yeast Anticancer Drug Screen. Data for the cln2 rad14 strain (AID 165);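 further: 0% = growth equal to vehicle treated cultures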
Assay setup: S. cerevisiae cln2 rad14 strain, at 5.0 µM (retest, dose inferred, filed as 0.5), active compounds read high
About 79,000 compounds went through this panel and 15% of them were active in at least one assay; those are over-represented in the sample as a whole.
Entries and their growth inhibition
Your answer is read as %, so omit the unit and give the number.

Below, each entry is followed by its recorded growth inhibition result.
CCOC(=O)c1[nH]cnc1/N=N/N(C)N : 28
CCC[CH2][Sn]1([CH2]CCC)[O]CC(Cc2ccccc2)[O]1 (centres undefined) : 32
Oc1c(Cl)c(Cl)cc(Cl)c1Cc1c(Cl)cc(Cl)c(Cl)c1[O][Pb]([c]1ccccc1)([c]1ccccc1)[c]1ccccc1 : 99
CN1CCN(c2ccc3nc(-c4ccc5nc(-c6ccc(N(C)CCCl)cc6)[nH]c5c4)[nH]c3c2)CC1 : 47
O=[N+]([O-])C=C([SH2+])[SH2+].O=[N+]([O-])C=C([SH2+])[SH2+].[Ni+2].c1ccc(C[P+](c2ccccc2)(c2ccccc2)c2ccccc2)cc1 : -7
O=C1C=C(Cl)C(=O)C(Cl)=C1 : 0

Form field: reported growth inhibition of COc1c[c]([Hg][O]C(C)=O)c(OC)c(NC(=O)CC(C)=O)[c]1[Hg][O]C(C)=O
43

Form field: reported growth inhibition of COc1c(Br)cc(/C=C/[N+](=O)[O-])cc1Br
96

Form field: reported growth inhibition of COc1cc2c(c3c[n+](C)c4c5cc6c(cc5ccc4c13)OCO6)OCO2
98

Form field: reported growth inhibition of CO[C@@]12[C@@H]3N[C@@H]3CN1C1=C(C(=O)C(N(C)c3ccc(O)cc3)=C(C)C1=O)[C@@H]2COC(N)=O
1

Form field: reported growth inhibition of COc1cc(/C=C\[N+](=O)[O-])ccc1O
21

Form field: reported growth inhibition of CCC(=O)O.[Ag]
98

Form field: reported growth inhibition of Cc1cc(N(CCCl)CCCl)ccc1C=Nc1ccc(-c2csc(Cc3ccccc3)n2)c(Cl)c1
-18

Form field: reported growth inhibition of CCCC[As](CCCC)SC1CCC2(C)C(=CCC3C4CCC(=O)C4(C)CCC32)C1 (centres undefined)
5

Form field: reported growth inhibition of COC1=C(Cl)C(=O)c2ccccc2C1=O
-2

Form field: reported growth inhibition of N#Cc1cc([N+](=O)[O-])c(Cl)c([N+](=O)[O-])c1Cl
70

Form field: reported growth inhibition of NC(=O)c1cc([N+](=O)[O-])c(Cl)c([N+](=O)[O-])c1
36

Form field: reported growth inhibition of CCCCCCCCc1ccc(OCCN(CCCl)CCCl)cc1
-2

Form field: reported growth inhibition of CS(=N)(=O)CCC(N)C(=O)O (centres undefined)
-69

Form field: reported growth inhibition of CN(C=O)NC(=O)N(CCCl)N=O
23

Form field: reported growth inhibition of S=C=NCCc1ccccc1
2

Form field: reported growth inhibition of CC(C)[S-].CC(C)[S-].[Pt+2].c1ccc([PH+](c2ccccc2)c2ccccc2)cc1.c1ccc([PH+](c2ccccc2)c2ccccc2)cc1
-2

Form field: reported growth inhibition of CC1=CC(=O)c2c(O)cccc2C1=O
7

Form field: reported growth inhibition of NCCNCCN1CC1
-2

Form field: reported growth inhibition of COc1cc(/C=C(/C)[N+](=O)[O-])ccc1O
19

Form field: reported growth inhibition of C[CH2][Hg]
99

Form field: reported growth inhibition of Cc1c2ccncc2c(CN(CCCl)CCCl)c2c3ccccc3n(C)c12
6

Form field: reported growth inhibition of CCC[CH2][Sn]1([CH2]CCC)[O]C2C(O)OC(CO)C(O)C2[O]1 (centres undefined)
64

Form field: reported growth inhibition of CCc1cc(C)cc2[n+]1CC=C2
-1

###

Entries and their growth inhibition
Protocol description: NCI Yeast Anticancer Drug Screen. Data for the mlh1 rad18 strain (AID 175)
Assay setup: S. cerevisiae mlh1 rad18 strain growth inhibition; at 50.0 µM (retest, dose inferred, filed as 5.0); active compounds read high
The panel holds about 79,000 compounds, 15% with a hit somewhere; the sample as a whole holds those more often.
Your answer is read as %, so omit the unit and give the number.

Below, each entry is followed by its recorded growth inhibition result.
S=P(Nc1ccc(Cl)cc1)(Nc1ccc(Cl)cc1)c1ccccc1 : 95
CC(=O)[O-].O=C([CH-]C(=O)c1ccccc1)c1ccccc1.O=C([CH-]C(=O)c1ccccc1)c1ccccc1.[Dy+3] : 98
COc1ccc([As](O[As](c2ccc(OC)cc2)c2ccc(OC)cc2)c2ccc(OC)cc2)cc1 : 99

Proceed to the following item.
Form field: reported growth inhibition of O=C(Nc1ccccc1)c1cc([N+](=O)[O-])ccc1O.[Ni]
36
